Consider the following compounds; for each one, report its pIC50.
# Test system: Plasmodium falciparum
# assay comment: microbe, parasite or virus in culture
# test parameters: TM91C235
# Description: Antimalarial activity against mefloquine, chloroquine and quinine-resistant Plasmodium falciparum TM91C235
Schema: pIC50 number; meaning minus log10 of the concentration expressed in molar units.

Which pIC50 is reported for this compound? CC(=O)O[C@H]1C[C@H]2[C@@H]([C@H](OC(C)=O)C[C@@H]3CC4(CC[C@@]32C)OOC(C)(C)OO4)[C@@H]2CC[C@H]([C@H](C)CCC(=O)O)[C@@]12C 7.22

Then this compound: C[C@H](CCC(N)=O)[C@H]1CC[C@H]2[C@@H]3[C@H](O)C[C@@H]4CC5(CC[C@]4(C)[C@H]3C[C@H](O)[C@]12C)OOC(C)(C)OO5 6.64

Then this compound: CC(=O)O[C@H]1C[C@H]2[C@@H]([C@H](OC(C)=O)C[C@@H]3CC4(CC[C@@]32C)OOC(C)(C)OO4)[C@@H]2CC[C@H]([C@H](C)CCC(=O)NN)[C@@]12C 7.55

Then this compound: CC(=O)O[C@H]1C[C@H]2[C@@H]([C@H](OC(C)=O)C[C@@H]3CC4(CC[C@@]32C)OOC(C)(C)OO4)[C@@H]2CC[C@H]([C@H](C)CCC(=O)N(C)C)[C@@]12C 7.60

Then this compound: CC(=O)O[C@H]1C[C@H]2[C@@H]([C@H](OC(C)=O)C[C@@H]3CC4(CC[C@@]32C)OOC(C)(C)OO4)[C@@H]2CC[C@H]([C@H](C)CCC(=O)Nc3ccccc3)[C@@]12C 7.80

Then this compound: CC(=O)O[C@H]1C[C@H]2[C@@H]([C@H](OC(C)=O)C[C@@H]3CC4(CC[C@@]32C)OOC(C)(C)OO4)[C@@H]2CC[C@H]([C@H](C)CCC(=O)NCCN(C)C)[C@@]12C 8.15

Then this compound: CNC(=O)CC[C@@H](C)[C@H]1CC[C@H]2[C@@H]3[C@H](OC(C)=O)C[C@@H]4CC5(CC[C@]4(C)[C@H]3C[C@H](OC(C)=O)[C@]12C)OOC(C)(C)OO5 7.50

Then this compound: COC(=O)CC[C@@H](C)[C@H]1CC[C@H]2[C@@H]3[C@H](OC(C)=O)C[C@@H]4CC5(CC[C@]4(C)[C@H]3C[C@H](OC(C)=O)[C@]12C)OOC(C)(C)OO5 7.59

###

# assay comment: Metabolic stability in human liver microsomes assessed as half life at 10 uM
# Type: ADME, Microsome
reported endpoint: half-life at 10 µM (h)
The answer is to be given in h; state only the numeric part.

Which half-life at 10 µM is reported for this compound? CCCNC(=O)CC[C@@H](C)[C@H]1CC[C@H]2[C@@H]3[C@H](OC(C)=O)C[C@@H]4CC5(CC[C@]4(C)[C@H]3C[C@H](OC(C)=O)[C@]12C)OOC(C)(C)OO5 0.4

Then this compound: CC(=O)O[C@H]1C[C@H]2[C@@H]([C@H](OC(C)=O)C[C@@H]3CC4(CC[C@@]32C)OOC(C)(C)OO4)[C@@H]2CC[C@H]([C@H](C)CCC(=O)N(C)C)[C@@]12C 0.817

Then this compound: COC(=O)CNC(=O)CC[C@@H](C)[C@H]1CC[C@H]2[C@@H]3[C@H](OC(C)=O)C[C@@H]4CC5(CC[C@]4(C)[C@H]3C[C@H](OC(C)=O)[C@]12C)OOC(C)(C)OO5 1.17

Then this compound: CC(=O)O[C@H]1C[C@H]2[C@@H]([C@H](OC(C)=O)C[C@@H]3CC4(CC[C@@]32C)OOC(C)(C)OO4)[C@@H]2CC[C@H]([C@H](C)CCC(=O)Nc3ccccc3)[C@@]12C 0.317
